# PROTOCOL NOTES: PET hydrolysis, aromatic products released after 48 h (umol product/mg enzyme); higher = more PET depolymerization activity
# STATED CONDITIONS: substrate: cryPow; 40 °C; pH 4.5
MEASURED METRIC: PET hydrolysis

Q. # return recorded PET hydrolysis for input ADNPYQRGPDPTRTSVTAVNGPFANTSVSVPTGHGFNGGRIYYPTDTSQGTFGAIAISPGYTALFSAELAWMGPWLASHGFVVIGIETNSRNDFDTARGTQLLAALDYLTQQSPVRDRVDPSRLAVSGHSMGGGGALSAAMRRASLKAVVGITPYSPSSNLANDRVPTMIISGQADTVVTPSYALGLYNSIPATTESVYLEVAGGDHGFMVGRSNPVLVRTMLPFLKMFIDNDTRYSQFLCPLLDNSGVVTYRSTCPLLPTDPTTPPTGTPTPTPTTPAPTTPPPTTPPGSASEIRGTQSNRCIDVPNASRNNGTRVQLYDCNRQTNQAWTYTANKQLQVYGNMC [ESM106]
A. 9

Q. Consider the sequence GSLAHIVMVDAYKPTKGSGASQTNPYARGPNPTAASLEASAGPFTVRSFTVSRPSGYGAGTVYYPTNAGGTVGAIAIVPGYTARQSSIKWWGPRLASHGFVVITIDTNSTFDYPSSRSSQQMAALRQVASLNGDSSSPIYGKVDTARMGVMGHSMGGGASLRSAANNPSLKAAIPQAPWDSQTNFSSVTVPTLIFACENDSIAPVNSHALPIYDSMSRNAKQFLEINGGSHSCANSGNSNQALIGKKGVAWMKRFMDNDTRYSTFACENPNSTAVSDFRTANCSLEGSGGSGAHIVMVDAYKPTK [TEP004] . State its measured PET hydrolysis.
A. 4

Q. Please give measured PET hydrolysis of the following entry: MPPPPPPPPPVQTVTVEPGYGFGGGTIYYPQESTGRLPVVAAVPGFTETQEAVAWYGPLLARRGNIVITIDTISPTNAPKTRADQALAAIDYVVTQSAVSDIADASRTAVMGHSMGGGASLFAALKRPTLKAIVPLAPWARTTDFSGVAVPTLIVGCENDGIAAVGTYAEPFYESIPATTPKAYLEMAGGNHYCTNSEDPVIAGYVSAWTDRFLKGDTTASSRLCPPSPVGPISEYRSNCPY [TEP189]
A. < 3

Q. Please report the measured PET hydrolysis for DEIGQAPTSSNITGNGSFSVATYNISSLVSGFGGGVAYYPTTSGRYPVIAVSPGFTARWSSISWIGPRLASWGFVVVGIETNSIYDQPGSRGSQLLAALNWAVNSAPSSVRDRVDGSRRGVAGHSMGGGGTLEALAADTTGLVKAGVPIAPWNTDTTWGGLNEAVQIVGGESDTIAPVSSHSIPFYSTLGGPKSYVELNGASHFFPQTSNSTLSRALVSWFKRYLNNDARFTPFTCGYSGLSISDFRSNNC [ESM144]
A. < 3

Q. Given the sequence ADNPYERGPAPTTSSIEASRGPFATASTTVSSLVSGFGGGTIYYPTSTAEGTFGAVAISPGYTGTQSSIAWLGPRIASQGFVVITIDTNTIYDQPDSRASQLLAALDYLTQSSSVRTRIDATRLGVMGHSMGGGGTLRAAESRPALQAAIPLTAWHTDKTWGNVRVPTLVIGAENDSIAPVATHSEPFYTSLPSTLDKAYLELNAADHFAPNSSNTTIAKYSISWLKRFIDNDTRYEQFLCPPPSRSLLIEEYRDTCPHS [TEP108] , write its reported PET hydrolysis.
A. < 3

----------
For each of the sequences below, state its PET hydrolysis.
# PROTOCOL NOTES: PET hydrolysis, aromatic products released after 48 h (umol product/mg enzyme); higher = more PET depolymerization activity
# STATED CONDITIONS: substrate: cryPow; 40 °C; pH 6.5

Q. Specify measured PET hydrolysis for QSSNPYQRGPAPTERSIEASRGPFAVAQTTVSRLSATGFGGGTIYYPTDTSQGRFGGVAISPGFTALQSSIAWLGPRIASQGFIVFTIDTITTLDQPAQRGDQLLAALDYLVQRSPAAVRDRLDPTRLAVMGHSMGGGGTLEAAKKRPSLKAAIPLTGWNLDTIWNDLRVPTLVVGAQLDLIAPILTFSLPFYNTIPASTEKVYLELAGASHFAPNLPDTNIAKYSIAWLKRWVDNDTRYTQFLCPGPRFELAISNYMSSCPM [DP056] .
A. < 3

Q. Determine its reported PET hydrolysis: TDNPHQRGPNPSQASISANRGTFATAETSVGSGNGFGAAKIYYPTDTGQGTFGAIAVSPGYTATWAAEGAWMGHWLASFGFVVIGIDTINRNDFDVARGTQLLAALDYLTQRSSVRTRVDPSRLAVMGHSMGGGGTISAALRRPTLKAAIGLAPYSPSQTTTGMQVPTVLLAGQNDGTSTPASIITLHNNIPASTEKAYLELTGAGHGFPTSNNSVVTRKVIPWMKIFIDQDTRYTQFLCPLQDWTGIRSYRNSCPLLPNDPGTTFSLAGSASGKCVDVPGRVQTNGTGLIIWTCNGAANQHWTRTAAGELRIYGNSKCMDASGQGARVTINSCNGGSGQKWTVGTNGTVTNAASAGCLDTGGTADNAPVIVTTCNGGSGQIWIKRS [ESM184]
A. < 3

Q. Answer with the recorded PET hydrolysis of AGFERGPDPSTSTLDAARGPFAVAEERVYSWRASGFGGGDIYYPTTTSEGTFGVVAVAPGYTAGRSSMAWLASRIASHGFVVINIDTLTRSDQPASRGRQLLAALDHVTSSSGVRDRVDASRQAVVGHSMGGGGALEAASSRPALQAAVPLTPWNLTKRWSSLQVPTFIVGAENDSVASVRTHAEPFYESLPAALPKAYLELNNASHFAPNTTNSTIGRYTVAWLKRYVDDDLRYSQFLCPPPPPSSAIEEFRATC [DP087] only.
A. < 3

Q. Recall and state the measured PET hydrolysis for ATYERGPAPTAQSIVADGPFSYATVAVPTQSSFGGGTIYYPTDTNQGTFGAVAVIPGFVGSLDNVAWIGSRLASHGFVVFTVATTNPFAFPGDRAAQLQAALTYLTQSSSVRDRVDPNRLAVAGHSMGGGGALEAVRNNPALKAAVALQPWDFGQNFSAIAVPSMIVGAQNDQVATVTSHSEPFYDQIPAGAEKAYLELAGAGHDAGQSVSNATQAGSMLSWLKRYVDEDTRYEQFLCPAPSGPSVAEYRDTCPA [DP045] .
A. < 3

Q. Return value of PET hydrolysis for input AADNPYQRGPDPTPASVSANRGTFATTQVAVAAGNGFGGGVIYYPTDTSQGQFGAIAVVPGYTATWAAEGAWMGHWLASFGFVVIGIDTNNRNDWDTARGTQLLAALDYLTQRSSVRDRVDATRTAVMGHSMGGGGAASASLQRPSLKASIGLAPASFSQNLTTTRVPTMLLSGQNDTTITPASVVNLYNGIPASVEKAYLELSGAGHGFPTSNNSTMMRNVIPWFKVFVDSDTRYTQFLCPLANWSGIRTYQSTCPLVPSTPPTSTTTSTTTSTTTSTTTTTTPQPVGACNATYRTTNSWPGGYQGEVTVTAGESGVNGWTTRWTLGSGQTVTQVWNGTLTVDGSTASVRNAAYNGSLPAGGSAAFGFIGGGTPPTSLTCTSP [ESM023] , no commentary.
A. < 3

----------
Provide the reported melting temperature of each item.
# PROTOCOL NOTES: melting temperature (DSF); higher = more thermostable
Return type: number; implicit unit C.

Q. Give melting temperature for the following sequence: FSAPGPSAPCSNCTRGPAPTVASLKASSGPFSTAKFSVSGYLKGFGNSTVYYPTNTSGKMGAIAVIPGYLSYESSIEWWGPRLASHGFVVMTMNTNSIYDQPDSRATQLSKALDYLISQSGSSSSPIYGKVDSSRLGAIGWSMGGGGSLKLSTQRSINAIIPQAPWYLGSNTFNTIKTPALILACSADTVAPVYQHASPFYNRIPTSTPKAFLEIYGGSHFCANSGYPNEDLLGMYGIAWMKRFIDFDSRYSQFLCGPNHESDYAISEYRQNCPY [ESM017]
A. 56.5

Q. Give reported melting temperature value for APGPSAPCSNCTRGPNPTEASLKSDRGPFTTARFSVSGFLKGFGDSTVYYPTNTTGRMGAIAVIPGYLSYESSIEWWGPRLASHGFVVMTMNTSTIYDQPDSRATQLSKALDYLIAQSNTSSSPIYNKIDSTRLGAIGWSMGGGGSLKLSTQRSLNAIIPQAPWYSGSNSFNTIKTPALILACSADTVAPVSVHASPFYNRIPGSTPKAFLEIYGGSHFCANSGYPNEDLLGLYGIAWMKRFIDFDNRYSQFLCGPNHEGDFAISDYRQNCPY [ESM096]
A. 52

Q. Give the value of melting temperature reported for the following: ADSPYQRGPDPTPASVAATRGPFATTQATVPAGNGFNGGYVYYPTDTSQGTWGAVAIVPGYSALFANEEAWMGPWLASFGFVVIGIETNSRTDGADARATQLLAALDYLTRTSPIRDRVDANRLGVMGHSAGGAGTLLAALRRPTLKTAVGLAPGTPGNNLNMSTTQVPTMLLSGQNDGTVTPTYVQGIYNTLPAGVEHAWAELAGNDHLSFTRSNPTEMRLLIPWLKTFLDNDTRYTQFLCPLANSTGVSRYNATCPLVPPDGPTSPPTTTPPTSAPPTTSAPTTPPPSGATCTATYRTVNSWSGGFQGEVTVTAGAAALNGWTVRWESNNGQSISQVWNGTLSTSGSTATVRNVSYNGSLAAGATTTFGFLSSGTPAATSPTCASP [ESM051]
A. 54.4

Q. // fetch melting temperature given entry ADNPYQRGPDPTVASVAATNGPFATAQLNVPSGNGFNGGTIYYPTDTSLGTWGAVAIVPGYTARFANEEAWMGPRLASFGFVVIGVETNSTTDWDTARGTQLLAALDYLTQKSSVRDRVDASRLAVIGHSMGGGGVVYAASQRPSLKAAIGLAPYAPSGNLSNVKVPMLIQGGQNDTVVTPSYLDGLYPTLPSSTPGAYVQYSGADHLFWTKANNIELRTQIPWLKIFLDNDTRYTQFMCPTLKDTASVAKYSAKCSLIPSAGSTTAPTTQPATSAPATTSPTTQPPSQPG [TEP083]
A. 64.3
